Would you mind telling me the reported ΔTm of each entry?
Tgt: Fibroblast growth factor 14 (Homo sapiens)
Experiment description: Binding affinity to human recombinant FGF14 expressed in Escherichia coli BL21 assessed as assessed as induction of protein denaturation by measuring change in melting temperature at 50 uM by fluorescent dye based thermal shift assay
Condition: filed as modulator
Residues, ends and D or L forms follow the SMILES beside them. *: point of attachment. Adamantane1carbonyl = O=C(C12CC3CC(CC(C3)C1)C2)*; Pyrrolidide = C1CCN(*)C1; Cbz = O=C(OCc1ccccc1)*; OcHex = C1CCC(O*)CC1; OtBu = CC(C)(C)O*; OAll = C=CCO*; X1 = C#CCO*

Input C#CCOC(=O)[C@@H](NC(=O)[C@H](CCC(=O)OC(C)(C)C)NC(=O)[C@H](CC(C)C)NC(=O)[C@@H]1CCCN1C(=O)C12CC3CC(CC(C3)C1)C2)C(C)C (Adamantane1carbonyl-PLE(OtBu)V-X1) . Output ΔTm: -1.85 °C

Input CC(C)C[C@H](NC(=O)[C@@H]1CCCN1C(=O)OCc1ccccc1)C(=O)N[C@@H](CCC(=O)OC(C)(C)C)C(=O)N[C@H](C(=O)N1CCCC1)C(C)C (Cbz-PLE(OtBu)V-Pyrrolidide) . Output ΔTm: 3.38 °C

Input C=CCOC(=O)[C@@H](NC(=O)[C@H](CCC(=O)OC(C)(C)C)NC(=O)[C@H](CC(C)C)NC(=O)[C@@H]1CCCN1C(=O)OCc1ccccc1)C(C)C (Cbz-PLE(OtBu)V-OAll) . Output ΔTm: 0.67 °C

Input CC(C)C[C@H](NC(=O)[C@@H]1CCCN1C(=O)C12CC3CC(CC(C3)C1)C2)C(=O)N[C@@H](CCC(=O)OC(C)(C)C)C(=O)N[C@H](C(=O)OC(C)(C)C)C(C)C (Adamantane1carbonyl-PLE(OtBu)V-OtBu) . Output ΔTm: -0.89 °C

Input C=CCOC(=O)[C@@H](NC(=O)[C@H](CCC(=O)OC(C)(C)C)NC(=O)[C@H](CC(C)C)NC(=O)[C@@H]1CCCN1C(=O)C12CC3CC(CC(C3)C1)C2)C(C)C (Adamantane1carbonyl-PLE(OtBu)V-OAll) . Output ΔTm: -4.55 °C

Input CC(C)C[C@H](NC(=O)[C@@H]1CCCN1C(=O)C12CC3CC(CC(C3)C1)C2)C(=O)N[C@@H](CCC(=O)OC(C)(C)C)C(=O)N[C@H](C(=O)OC1CCCCC1)C(C)C (Adamantane1carbonyl-PLE(OtBu)V-OcHex) . Output ΔTm: -2.21 °C

Input COC(=O)[C@@H](NC(=O)[C@H](CCC(=O)OC(C)(C)C)NC(=O)[C@H](CC(C)C)NC(=O)[C@@H]1CCCN1C(=O)C12CC3CC(CC(C3)C1)C2)C(C)C (Adamantane1carbonyl-PLE(OtBu)V-OMe) . Output ΔTm: -2.27 °C
